- assay notes: NCI Yeast Anticancer Drug Screen. Data for the rad50 strain (AID 155);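 note: 0% = growth of vehicle-only cultures of the same strain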
- condition context: S. cerevisiae rad50 strain growth inhibition, hits give high values; at 50.0 µM unless noted
- Experimental: Growth inhibition of yeast strains with defined genetic alterations is measured as a screen for potential anti-cancer activity. Selected strains with alterations in DNA damage repair or cell cycle control were exposed to compounds and growth inhibition was measured relative to vehicle treated controls. The strain used in this assay is rad50
This is part of a sample that, as a whole, favours compounds with a hit. Of some 79,000 tested, about 15% had one in any assay.
Classification field: MET = growth inhibition at or over 10%; NOT MET = growth inhibition under 10%.

// below: answered compounds
| compound | assigned category |
| --- | --- |
| CCCCSCC(N)CO (stereo not drawn) | NOT MET |
| CC1CCCN1c1ccnc2cc(Cl)ccc12 (stereo not drawn) | MET |
| Cc1ccc(C(=O)O)c(/C=C2\Cc3cc(C)cc(C)c3C2=O)c1 | MET |
| CSc1cc(Cl)c(C(=O)Nc2ccccc2)cc1S(=O)(=O)n1cc[nH]c1=O | NOT MET |
| COc1ccc(-c2cc(-c3ccco3)c(C#N)c(=O)[nH]2)cc1 | NOT MET |
| Cc1[nH]n(C(N)=S)c(=O)c1N=Nc1ccc([N+](=O)[O-])cc1Cl | MET |
| O=C1CCC2OC(=O)C3CCCC1C23 (stereo not drawn) | NOT MET |

Alright, here's another compound for you.
Entry COc1cccc2c1C(=O)c1c(O)c3c(c(O)c1C2=O)CC1(O)CC3OC1(C)OC (stereo not drawn) : is its growth inhibition no less than 10%?
NOT MET

###

I'd be grateful if you could share measured growth inhibition for these entries.
- assay notes: NCI Yeast Anticancer Drug Screen. Data for the bub3 strain (AID 167)
- condition context: S. cerevisiae bub3 mutant strain, hits give high values; at 50.0 µM unless noted
About 79,000 compounds went through this panel and 15% of them were active in at least one assay; those are over-represented in the sample as a whole. Calls of active or inactive are those of the source. Rule as the data show it: active = growth inhibition above about 70%; inactive = the rest.

Worked cases, growth inhibition given:
| molecule | growth inhibition |
| --- | --- |
| O=S=Nc1c(Cl)cc(Cl)cc1Cl | 11.7% (inactive) |
| CCOC(OCC)C(=O)NC(Cc1ccccc1NC(=O)c1ccccc1)c1ccc2c(c1)OCO2 (stereo not given) | 3.25% (inactive) |
| NNC(=O)Oc1cccc2ccccc12 | 36.4% (inactive) |
| O=C(N=C(Oc1ccccc1)Oc1ccccc1)N=C(Oc1ccccc1)Oc1ccccc1 | 9.15% (inactive) |
| CCOc1nc(=O)n(C2OC(CO)C(O)C2O)s1 (stereo not given) | -5.65% (inactive) |
| O=C1/C(=C/c2ccccc2)CCC2CCCCC12 (stereo not given) | -20.1% (inactive) |

I'm hoping you can list growth inhibition for every molecule here, please.
1. COC1C(O)C(n2ncc3c(SC)nc(SC)nc32)OC1C(O)CO (stereo not given)
2. COc1cc(C2c3cc4c(c(OC5OC(CO)C(O)C5O)c3CC3COC(=O)C32)OCO4)cc(OC)c1OC (stereo not given)
3. CCC(=O)Nc1ccccc1Cl
4. CC(=O)OCC1OC(n2c3c(c(-c4cccc5ccccc45)c(C#N)c2=S)CCCC3)C(OC(C)=O)C(OC(C)=O)C1OC(C)=O (stereo not given)
5. COc1cccc(-c2cc(=O)c3cc(C)cnc3[nH]2)c1
6. O=C1CC2(C(=O)O)CC3CC2C(O1)C3I (stereo not given)
7. Cc1ccc(N2C(=O)CC(NC3CCCCC3)C2=O)cc1 (stereo not given)
8. CCN(CC)C(=O)c1cc(OC)c(C(=O)N(CC)CC)cc1OC

1: -4% (inactive); 2: -0.95% (inactive); 3: -1.95% (inactive); 4: -5.8% (inactive); 5: 18.8% (inactive); 6: 14.5% (inactive); 7: -5.6% (inactive); 8: -9.4% (inactive)

I'm hoping you can list growth inhibition for every molecule here, please.
1. CC(C)CCCC(C)[C@H]1CCC2C3CC=C4C[C@@H](OC(=O)CC(CC(=O)[O-])C(=O)[O-])CC[C@]4(C)C3CC[C@@]21C.N.N.[Pt+4] (stereo not given in full)
2. O=C(CC(=O)N1N=C(n2ccc3ccccc32)CC1c1ccccc1)Nc1ccc(Cl)cc1 (stereo not given)
3. CCCCCCCCN1C(=O)CCC1=O
4. S=c1[nH]nc(-c2ccccc2Cl)o1
5. O=C1CCC(=O)N1N1C(=O)CCC1=O

["12.6% (inactive)", "-4.35% (inactive)", "-14.9% (inactive)", "-4.75% (inactive)", "-23.2% (inactive)"]

I'm hoping you can list growth inhibition for every molecule here, please.
1. CCCC(=O)NC1CCc2cc(OC)c(OC)c(OC)c2-c2ccc(OC)c(=O)cc21 (stereo not given)
2. C=C1CC(COc2ccc3c(C)c(Cl)c(=O)oc3c2)(c2ccccc2)OC1=O (stereo not given)
3. COc1ccc(-n2cnc3c2NC(C)(C)N=C3C(N)=O)c(OC)c1

["3.45% (inactive)", "18.8% (inactive)", "-10.2% (inactive)"]

###

I'd be grateful if you could share measured growth inhibition for these entries.
- assay notes: NCI Yeast Anticancer Drug Screen. Data for the rad50 strain (AID 155);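 note: 0% = growth of vehicle-only cultures of the same strain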
- condition context: S. cerevisiae rad50 strain growth inhibition, hits give high values; at 50.0 µM unless noted
The panel holds about 79,000 compounds, 15% with a hit somewhere; the sample as a whole holds those more often.
Give bare numbers, in %.

Worked cases, growth inhibition given:
| molecule | growth inhibition [%] |
| --- | --- |
| Nc1c(Br)cc(Br)cc1C(=O)O | 23.9 |
| COc1cc(C2c3cc4c(cc3OC(NN=C(C)C)C2C)OCO4)cc(OC)c1O (stereo unspecified) | 14.2 |
| NC(N)=Nc1ccc(-c2ccc(N=C(N)N)cc2)cc1 | -9.35 |
| CC(=O)N(c1nc2ccccc2s1)N1C(=O)c2ccccc2C1=O | -18.8 |
| N#C/C(=C\c1ccccc1)c1cccc(F)c1 | 28.9 |

I'm hoping you can list growth inhibition for every molecule here, please.
1. COc1cc(OC)c(-c2cc(=O)c3c(OC)c(OC)c(OC)c(OC)c3o2)cc1OC
2. Cc1ccc(NC(=O)c2ccc(OP(=O)(O)Nc3ccc(C)cc3)cc2)cc1
3. COc1ccc2c(O)c(Oc3ccccc3)c(=O)oc2c1
4. CCOC(=O)c1ccc(NC(=S)NC(=O)C(C)Oc2ccccc2)cc1 (stereo unspecified)
5. CCOc1ccccc1N1CCN(CC(O)CSc2ccccc2)CC1 (stereo unspecified)

1: -2.95; 2: -22.6; 3: 0.5; 4: -10.9; 5: 1.3

###

- assay notes: NCI Yeast Anticancer Drug Screen. Data for the mec2-1 strain (AID 157)
- condition context: S. cerevisiae mec2-1 strain, hits give high values; at 50.0 µM unless noted
Compounds without any hit were thinned out: in the full panel of roughly 79,000, 15% have a hit.
I'd be grateful if you could share measured growth inhibition for these entries.
One number for each entry, in %.

| compound | growth inhibition, % |
| --- | --- |
| O=C(NCc1ccc(Cl)cc1)NC1CCCCC1 | 36.9 |

I'm hoping you can list growth inhibition for every compound here, please.
1. CNc1cc([N+](=O)[O-])ccc1Br
2. CC(=O)CCOC(=O)c1cc([N+](=O)[O-])cc([N+](=O)[O-])c1
3. c1ccc2nc(CCC3CCCCN3)ccc2c1 (centres undefined)

1: 4.2; 2: -4.1; 3: 7.5

###

- assay notes: NCI Yeast Anticancer Drug Screen. Data for the cln2 rad14 strain (AID 165);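 note: 0% = growth equal to vehicle treated cultures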
- condition context: S. cerevisiae cln2 rad14 strain, hits give high values; at 50.0 µM unless noted
Compounds without any hit were thinned out: in the full panel of roughly 79,000, 15% have a hit.
property name: growth inhibition (%)
Give bare numbers, in %.

Worked cases, growth inhibition given:
| molecule | display unit | test value |
| --- | --- | --- |
| OC1COC(CCl)OC1C1OC(CCl)OCC1O (stereo not drawn) | % | 6.3 |
| CCOC(=O)c1cnc2c(cnn2CC)c1NCC(C)C | % | 3.15 |
| CC(=O)NC1=NC(=O)/C(=C/c2ccccc2Cl)N1C | % | 8 |
| O=C(OCc1ccccc1CN1CCCCC1)c1cccc(Cl)c1 | % | -10.3 |
| COc1cc2c(c3oc4c(O)cccc4c(=O)c13)CC(C(C)(O)CO)O2 (stereo not drawn) | % | -9.25 |
| CS(=O)(=O)OCCN(CCOS(C)(=O)=O)c1cc(C(N)=O)c([N+](=O)[O-])cc1[N+](=O)[O-] | % | -12.9 |
| NNC(=O)Cc1ccc(Cl)c2ccccc12 | % | -75.9 |
| ClCCCCCNC1CCCCC1 | % | -15.7 |
| Cc1onc(-c2ccccc2)c1C(C)(O)c1ccccc1 (stereo not drawn) | % | -17.9 |
| O=C(O)CCC1NC(/C(=C/c2ccccc2O)NC(=O)c2ccccc2)OC1=O (stereo not drawn) | % | -19.1 |

I'm hoping you can list growth inhibition for every molecule here, please.
1. O.O.O=S(=O)(O)C(F)(F)F.[NH2-].[NH2-].[NH2-].[NH2-].[Ru+3]
2. Cc1cc(C)c(-c2c(C)cc(C)c(C(=O)c3ccc([N+](=O)[O-])cc3)c2C)c(C)c1C(=O)c1ccc([N+](=O)[O-])cc1
3. CCCCC(C)(C)SCCC(=O)O
4. CCOC1=Nc2ccccc2C1(C)CCO (stereo not drawn)
5. CCCCOC(=O)c1cccc(C)c1
6. Cc1nc2cccc3ccc4c5ccccc5cc1c4c32

1: -16.9; 2: 9.25; 3: 10.9; 4: -62.2; 5: -38.1; 6: 0.9

I'm hoping you can list growth inhibition for every molecule here, please.
1. COC(=O)C1(C)C=C(Nc2ccccc2)C(=O)N1c1ccccc1 (stereo not drawn)
2. CCOC(=O)c1c2ccc(/C=C/C(=O)OC)ccc-2c(C(=O)OCC)c1N

1: 21.8; 2: -23.2
